- Assay target: Microsomal triglyceride transfer protein (MTP) from bovine liver (Bos taurus)
- Construct: from tissue; host or cells: bovine liver
- Sequence (P55156 12-887): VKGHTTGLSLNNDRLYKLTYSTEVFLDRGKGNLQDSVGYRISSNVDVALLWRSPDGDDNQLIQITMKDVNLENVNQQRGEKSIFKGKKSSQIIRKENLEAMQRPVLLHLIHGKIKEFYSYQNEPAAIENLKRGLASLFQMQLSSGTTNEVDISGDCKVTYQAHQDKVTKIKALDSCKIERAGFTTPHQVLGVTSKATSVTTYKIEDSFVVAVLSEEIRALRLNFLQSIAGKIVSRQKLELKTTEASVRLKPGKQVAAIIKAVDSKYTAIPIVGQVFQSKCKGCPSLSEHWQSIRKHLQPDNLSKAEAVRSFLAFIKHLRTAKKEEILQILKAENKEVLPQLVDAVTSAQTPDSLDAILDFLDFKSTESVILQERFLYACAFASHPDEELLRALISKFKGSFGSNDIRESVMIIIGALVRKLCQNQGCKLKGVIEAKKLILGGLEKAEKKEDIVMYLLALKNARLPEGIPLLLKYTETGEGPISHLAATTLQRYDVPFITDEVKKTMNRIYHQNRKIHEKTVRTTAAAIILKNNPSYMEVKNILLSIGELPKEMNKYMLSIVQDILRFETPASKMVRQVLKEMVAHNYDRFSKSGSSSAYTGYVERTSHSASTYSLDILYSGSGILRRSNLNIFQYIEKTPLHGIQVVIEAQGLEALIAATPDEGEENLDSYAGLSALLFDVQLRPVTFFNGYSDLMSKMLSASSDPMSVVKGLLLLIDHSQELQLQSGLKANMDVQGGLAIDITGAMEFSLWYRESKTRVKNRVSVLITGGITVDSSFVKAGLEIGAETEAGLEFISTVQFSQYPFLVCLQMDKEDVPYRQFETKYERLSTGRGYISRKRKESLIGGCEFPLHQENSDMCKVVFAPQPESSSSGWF
- Sequence (P05307 21-510 partner): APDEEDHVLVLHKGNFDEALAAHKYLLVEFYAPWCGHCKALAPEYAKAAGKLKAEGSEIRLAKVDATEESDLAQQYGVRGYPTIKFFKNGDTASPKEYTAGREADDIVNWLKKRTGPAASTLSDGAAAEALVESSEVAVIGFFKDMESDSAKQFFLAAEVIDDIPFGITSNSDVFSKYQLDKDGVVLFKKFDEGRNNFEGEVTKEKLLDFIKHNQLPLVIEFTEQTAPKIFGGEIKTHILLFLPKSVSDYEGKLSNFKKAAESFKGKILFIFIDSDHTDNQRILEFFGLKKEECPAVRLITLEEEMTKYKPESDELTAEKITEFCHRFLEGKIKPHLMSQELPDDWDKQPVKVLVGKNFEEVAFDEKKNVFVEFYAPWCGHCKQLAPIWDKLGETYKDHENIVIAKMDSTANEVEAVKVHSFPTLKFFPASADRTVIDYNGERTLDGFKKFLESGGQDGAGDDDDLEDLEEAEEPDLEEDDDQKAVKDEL
- Assay notes: Test Example 1: inhibition of interliposomal triglyceride (TG) transfer activity by MTP (also used for metabolites in Test Example 8)
- Format: biochemical
- Assay context: MTP-mediated 14C-triolein transfer between liposomes, 37° C., one hour; read-out: Test Example 1 MTP inhibition IC50
pIC50: −log10 of the molar value.
Measured attribute: pIC50

Worked cases, pIC50 given:
CCOC(=O)C(COC(=O)Cc1ccc(NC(=O)c2ccccc2-c2ccc(C(F)(F)F)cc2)cc1C)(C(=O)OCC)c1ccccc1 ... 8.15
CCOC(=O)C(CCOC(=O)c1ccc(NC(=O)c2ccccc2-c2ccc(C(F)(F)F)cc2)cc1)(C(=O)OCC)c1ccccc1 ... 8.20

I: CCOC(=O)C(COC(=O)Cc1ccc(NC(=O)c2ccccc2-c2ccc(C(F)(F)F)cc2)cc1)(C(=O)OCC)c1cccnc1
II: CCNC(=O)C(COC(=O)Cc1ccc(NC(=O)c2ccccc2-c2ccc(C(F)(F)F)cc2)c(C(=O)N(C)C)c1)c1ccccc1 (stereo not drawn)
III: O=C(Cc1ccc(NC(=O)c2ccccc2-c2ccc(C(F)(F)F)cc2)cc1)OCC(C(=O)NCC(F)(F)F)c1ccccc1 (stereo not drawn)
IV: CCOC(=O)C(COC(=O)Cc1ccc(NC(=O)c2ccccc2-c2ccc(C(F)(F)F)cc2)cc1)(Cc1ccccc1)C(=O)OCC
Falling order of pIC50, please. // format: requested-order list of labels II, I, III, IV

---

- Test system: HepG2 cells
- Assay notes: Test Example 2: inhibition of apolipoprotein B secretion from HepG2 cells, ELISA (also used for metabolites in Test Example 8)
- Assay type: cell-based
- Assay context: Homo sapiens, 24 hours, apo B in supernatant by ELISA, read-out: Test Example 2 Inhibition of apo B secretion IC50
Measured attribute: IC50 (µM)

I: CCOC(=O)C(COC(=O)Cc1cc(C(=O)N(C)C)c(NC(=O)c2ccccc2-c2ccc(C(F)(F)F)cc2)cn1)(C(=O)OCC)c1ccccc1
II: CC(C)NC(=O)C(CCOC(=O)Cc1cccc(NC(=O)c2ccccc2-c2ccc(C(F)(F)F)cc2)c1)(C(=O)NC(C)C)c1ccccc1
// which entry has the larger IC50 value, I or II ? Reply with the label of the item you choose. II

---

- Test system: HepG2 cells
- Assay notes: Test Example 2: inhibition of apolipoprotein B secretion from HepG2 cells, ELISA (also used for metabolites in Test Example 8)
- Format: cell-based
- Assay context: Homo sapiens, 24 hours, apo B in supernatant by ELISA, read-out: Test Example 2 Inhibition of apo B secretion IC50
Measured attribute: IC50 (nM)

CCOC(=O)C(COC(=O)CCc1ccc(NC(=O)c2ccccc2-c2ccc(C(F)(F)F)cc2)c(C(=O)N(C)C)c1)(C(=O)OCC)c1ccccc1 ... 3.1

P: CCOC(=O)C(COC(=O)Cc1ccc(NC(=O)c2ccccc2-c2ccc(C(F)(F)F)cc2)c(C(=O)N(C)CC)c1)(C(=O)OCC)c1ccccc1
Q: CCOC(=O)C(COC(=O)Cc1ccc(NC(=O)c2ccccc2-c2ccc(C(F)(F)F)cc2)c(C(C)C)c1)(C(=O)OCC)c1ccccc1
R: CCOC(=O)C(COC(=O)Cc1ccc(NC(=O)c2ccccc2-c2ccc(C(F)(F)F)cc2)c(CC(C)C)c1)(C(=O)OCC)c1ccccc1
Order the records, beginning with the lowest IC50 and ending with the highest. Order the labels as requested and list them. R, P, Q

P: CCCNC(=O)C(CCOC(=O)Cc1cccc(NC(=O)c2ccccc2-c2ccc(C(F)(F)F)cc2)c1C)(C(=O)NCCC)c1ccccc1
Q: CCOC(=O)C(COC(=O)Cc1ccc(NC(=O)c2ccccc2-c2ccc(C(F)(F)F)cc2)c(OCc2ccccc2)c1)(C(=O)OCC)c1ccccc1
Rank P against Q by their IC50 values and give the higher one. Your choice should be expressed through its label. Q

Cited source for all entries: patent US7625948B2
